- Test system: K-562
- PROCEDURE_DETAILS: NCI 60 antitumor screening (single dose / five doses)
- Assay type: cell-based
- SETTINGS: Homo sapiens, K562, read-out: Growth inhibition percentage (GI %)
This listing pairs compounds with measured inhibition at 10 µM.
Note: a bare number is incomplete; add the unit.

Give inhibition at 10 µM only, for `O=[N+]([O-])c1cc(/C=N/Nc2nc(N/N=C/c3ccc(Cl)c([N+](=O)[O-])c3)nc(N3CCCCC3)n2)ccc1Cl` , using K-562 data.
68.3%

###

- Test system: UACC-62
- PROCEDURE_DETAILS: NCI 60 antitumor screening (single dose / five doses)
- Format: cell-based
- SETTINGS: Homo sapiens; UACC-62 (melanoma), single dose 10 μM; read-out: Growth inhibition percentage (GI %)
MEASURED_PROPERTY: inhibition at 10 µM (%)
Kindly provide the numeric value in % only, without the unit symbol.

These solved cases illustrate the format of a correct answer.
[[record]]
molecule = "Oc1ccc(/C=N/Nc2nc(N/N=C/c3ccc(O)c(O)c3)nc(N3CCOCC3)n2)cc1O"
system_under_test = "UACC-62"
reported_value = 2.19

[[record]]
molecule = "COC(=O)C(Cc1ccccc1)Nc1nc(NC(Cc2ccccc2)C(=O)OC)nc(N2CCOCC2)n1 (stereo not drawn)"
system_under_test = "UACC-62"
reported_value = 9.82

[[record]]
molecule = "Clc1cccc(/C=N/Nc2nc(N/N=C/c3cccc(Cl)c3)nc(N3CCOCC3)n2)c1"
system_under_test = "UACC-62"
reported_value = 8.33

[[record]]
molecule = "C(=N\\Nc1nc(N/N=C/c2ccc3c(c2)OCO3)nc(N2CCOCC2)n1)/c1ccc2c(c1)OCO2"
system_under_test = "UACC-62"
reported_value = -4.28


Name the recorded inhibition at 10 µM of the molecule listed here: `Fc1cccc(/C=N/Nc2nc(N/N=C/c3cccc(F)c3)nc(N3CCCCC3)n2)c1`
25.8

Give a short answer stating reported inhibition at 10 µM for `Brc1ccccc1/C=N/Nc1nc(N/N=C/c2ccccc2Br)nc(N2CCCCC2)n1` .
12.2

Answer with reported inhibition at 10 µM of `O=C1Nc2ccc(Cl)cc2/C1=N\Nc1nc(N/N=C2/C(=O)Nc3ccc(Cl)cc32)nc(N2CCOCC2)n1`
48.4

Report measured inhibition at 10 µM; entry is `Brc1cccc(/C=N/Nc2nc(N/N=C/c3cccc(Br)c3)nc(N3CCOCC3)n2)c1`
44

Quickly give me recorded inhibition at 10 µM for `Fc1cccc(/C=N/Nc2nc(N/N=C/c3cccc(F)c3)nc(N3CCOCC3)n2)c1`
-5.24

Give inhibition at 10 µM for `Brc1cccc(/C=N/Nc2nc(N/N=C/c3cccc(Br)c3)nc(N3CCCCC3)n2)c1`
14.5

Identify inhibition at 10 µM associated with the molecule `Oc1ccccc1/C=N/Nc1nc(N/N=C/c2ccccc2O)nc(N2CCCCC2)n1`
29.7

Specify reported inhibition at 10 µM for the molecule shown: `CN(C)c1ccc(/C=N/Nc2nc(N/N=C/c3ccc(N(C)C)cc3)nc(N3CCOCC3)n2)cc1`
2.25

###

- System: K-562
- PROCEDURE_DETAILS: NCI 60 antitumor screening (single dose / five doses)
- Type: cell-based
- SETTINGS: Homo sapiens, K562, read-out: Growth inhibition percentage (GI %)
MEASURED_PROPERTY: inhibition at 10 µM (%)
Report the figure in % without appending any unit label.

Example cases with answers are listed next.
[[record]]
molecule = "O=[N+]([O-])c1cc(/C=N/Nc2nc(N/N=C/c3ccc(Cl)c([N+](=O)[O-])c3)nc(N3CCOCC3)n2)ccc1Cl [compound 6i]"
output_unit = "%"
reported_value = 31.4

[[record]]
molecule = "O=[N+]([O-])c1cccc(/C=N/Nc2nc(N/N=C/c3cccc([N+](=O)[O-])c3)nc(N3CCCCC3)n2)c1 [compound 7f]"
output_unit = "%"
reported_value = 67.6


Provide measured inhibition at 10 µM on K-562 for C/C(=N\Nc1nc(N/N=C(\C)c2ccc([N+](=O)[O-])cc2)nc(N2CCOCC2)n1)c1ccc([N+](=O)[O-])cc1 [compound 8a] please.
20.3
